Test: TRM-201-PK-102 single-dose four-period crossover pharmacokinetic study, fasted healthy subjects
Type: in vivo, human
Settings: male, human, plasma, oral, 25 mg, 102 study, printed 'For males' (second statement, after the females' arithmetic means), read-out: geometric mean Cmax
property name: Cmax (ng/mL)
Unit ng/mL implied. Number only.

Any idea what its Cmax is? The molecule is `CS(=O)(=O)c1ccc(C2=C(c3ccccc3)C(=O)OC2)cc1`
382

* * *

Assay: TRM-201-PK-102 single-dose four-period crossover pharmacokinetic study, fasted healthy subjects
Format: in vivo, human
Conditions: human, plasma, oral, 25 mg, 102 study, Hispanic or Latino subjects, read-out: arithmetic mean AUC0-∞
property name: AUC(0-inf) (ng·h/mL)
Unit ng·h/mL implied. Number only.

Any idea what its AUC(0-inf) is? The molecule is CS(=O)(=O)c1ccc(C2=C(c3ccccc3)C(=O)OC2)cc1 [TRM-201]
4980

* * *

Experiment: TRM-201-PK-102 single-dose four-period crossover pharmacokinetic study, fasted healthy subjects
Type: in vivo, human
Conditions: human, plasma, oral, 12.5 mg, 102 study only, read-out: arithmetic mean AUC0-∞
property name: AUC(0-inf) (ng·h/mL)
Unit ng·h/mL implied. Number only.

Any idea what its AUC(0-inf) is? The molecule is CS(=O)(=O)c1ccc(C2=C(c3ccccc3)C(=O)OC2)cc1 [TRM-201]
2010

* * *

Test: TRM-201-PK-102 single-dose four-period crossover pharmacokinetic study, fasted healthy subjects
Assay type: in vivo, human
Details: human, plasma, oral, 12.5 mg, 102 study, 53-60 years, read-out: geometric mean AUC0-∞
property name: AUC(0-inf) (ng·h/mL)
Unit ng·h/mL implied. Number only.

Any idea what its AUC(0-inf) is? The molecule is `CS(=O)(=O)c1ccc(C2=C(c3ccccc3)C(=O)OC2)cc1`
2240

* * *

Assay: TRM-201-PK-102 single-dose four-period crossover pharmacokinetic study, fasted healthy subjects
Format: in vivo, human
Details: human, plasma, oral, 12.5 mg, 102 study, body weight 77.1-90 kg, read-out: arithmetic mean AUC0-∞
property name: AUC(0-inf) (ng·h/mL)
Unit ng·h/mL implied. Number only.

Any idea what its AUC(0-inf) is? The compound is `CS(=O)(=O)c1ccc(C2=C(c3ccccc3)C(=O)OC2)cc1`
1790

* * *

Experiment: TRM-201-PK-102 single-dose four-period crossover pharmacokinetic study, fasted healthy subjects
Format: in vivo, human
Settings: human, plasma, oral, 12.5 mg, 102 study, Hispanic or Latino subjects, read-out: arithmetic mean AUC0-∞
property name: AUC(0-inf) (ng·h/mL)
Unit ng·h/mL implied. Number only.

Any idea what its AUC(0-inf) is? The molecule is CS(=O)(=O)c1ccc(C2=C(c3ccccc3)C(=O)OC2)cc1 [TRM-201]
2210

* * *

Assay: TRM-201-PK-102 single-dose four-period crossover pharmacokinetic study, fasted healthy subjects
Format: in vivo, human
Settings: human, plasma, oral, 17.5 mg, 102 study, Hispanic or Latino subjects, read-out: arithmetic mean Cmax
property name: Cmax (ng/mL)
Unit ng/mL implied. Number only.

Any idea what its Cmax is? The compound is `CS(=O)(=O)c1ccc(C2=C(c3ccccc3)C(=O)OC2)cc1`
258

* * *

Experiment: 101 and 102 PK studies combined (fasted)
Assay type: in vivo
Conditions: human, plasma, oral, 17.5 mg, 101 and 102 studies (FIG. 47), read-out: geometric mean AUC0-∞
property name: AUC(0-inf) (µg·h/mL)
Unit µg·h/mL implied. Number only.

Any idea what its AUC(0-inf) is? The compound is CS(=O)(=O)c1ccc(C2=C(c3ccccc3)C(=O)OC2)cc1 [TRM-201]
3.11
